Target: PBS3 (AtGH3.12; His-PBS3) (Arabidopsis thaliana)
Sequence (Q9LYU4 1-575): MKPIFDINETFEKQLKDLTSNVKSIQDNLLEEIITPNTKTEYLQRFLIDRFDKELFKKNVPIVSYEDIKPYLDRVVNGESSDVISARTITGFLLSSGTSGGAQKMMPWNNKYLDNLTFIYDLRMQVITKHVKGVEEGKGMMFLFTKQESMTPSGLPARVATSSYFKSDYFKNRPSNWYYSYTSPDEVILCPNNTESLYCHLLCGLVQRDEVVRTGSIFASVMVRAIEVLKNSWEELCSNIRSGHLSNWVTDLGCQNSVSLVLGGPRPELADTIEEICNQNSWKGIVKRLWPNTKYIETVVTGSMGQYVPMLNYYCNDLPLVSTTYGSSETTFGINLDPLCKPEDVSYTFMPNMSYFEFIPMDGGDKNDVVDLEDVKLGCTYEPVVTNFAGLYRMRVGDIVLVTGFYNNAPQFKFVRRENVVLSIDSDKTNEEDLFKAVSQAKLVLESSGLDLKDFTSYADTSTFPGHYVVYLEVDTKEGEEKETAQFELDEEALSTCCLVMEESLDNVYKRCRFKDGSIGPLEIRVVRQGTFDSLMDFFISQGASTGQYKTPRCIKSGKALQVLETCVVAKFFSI
Assay: HPLC of pABA-Glu formation
property measured: IC50

[
  {
    "compound": "O=C(O)c1ccccc1O [salicylate]",
    "property measured": "IC50",
    "endpoint value": "~15 µM"
  }
]
